- TARGET OR SYSTEM: Alpha-1D adrenergic receptor (Rattus norvegicus, UniProt P23944)
- Sequence (P23944 whole entry): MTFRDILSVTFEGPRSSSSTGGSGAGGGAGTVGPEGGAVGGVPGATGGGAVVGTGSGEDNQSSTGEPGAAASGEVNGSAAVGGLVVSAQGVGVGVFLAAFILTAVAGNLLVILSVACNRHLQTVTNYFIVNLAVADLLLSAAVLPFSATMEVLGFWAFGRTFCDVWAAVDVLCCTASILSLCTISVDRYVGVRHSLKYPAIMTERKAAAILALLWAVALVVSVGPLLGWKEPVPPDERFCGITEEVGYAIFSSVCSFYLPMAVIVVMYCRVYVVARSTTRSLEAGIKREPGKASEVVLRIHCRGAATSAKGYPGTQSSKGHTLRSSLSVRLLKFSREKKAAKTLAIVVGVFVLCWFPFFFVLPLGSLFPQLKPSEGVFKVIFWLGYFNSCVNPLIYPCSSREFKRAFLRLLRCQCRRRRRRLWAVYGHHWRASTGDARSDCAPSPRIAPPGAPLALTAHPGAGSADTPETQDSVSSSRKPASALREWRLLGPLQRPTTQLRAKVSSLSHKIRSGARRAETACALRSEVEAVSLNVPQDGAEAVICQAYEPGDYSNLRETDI
MEASURED ATTRIBUTE: pKi
Answers are plain numbers, as −log10 of the molar value.

For the record `C[C@@H]1OC(=O)N(C(=O)NCCCN2CCC(c3ccc(F)cc3)CC2)[C@H]1c1ccc(F)c(F)c1` , what value of pKi is listed for Alpha-1D adrenergic receptor (Rattus norvegicus, UniProt P23944)? 7.21

---

- TARGET OR SYSTEM: Histamine H1 receptor (Homo sapiens, UniProt P35367)
- Sequence (P35367 whole entry): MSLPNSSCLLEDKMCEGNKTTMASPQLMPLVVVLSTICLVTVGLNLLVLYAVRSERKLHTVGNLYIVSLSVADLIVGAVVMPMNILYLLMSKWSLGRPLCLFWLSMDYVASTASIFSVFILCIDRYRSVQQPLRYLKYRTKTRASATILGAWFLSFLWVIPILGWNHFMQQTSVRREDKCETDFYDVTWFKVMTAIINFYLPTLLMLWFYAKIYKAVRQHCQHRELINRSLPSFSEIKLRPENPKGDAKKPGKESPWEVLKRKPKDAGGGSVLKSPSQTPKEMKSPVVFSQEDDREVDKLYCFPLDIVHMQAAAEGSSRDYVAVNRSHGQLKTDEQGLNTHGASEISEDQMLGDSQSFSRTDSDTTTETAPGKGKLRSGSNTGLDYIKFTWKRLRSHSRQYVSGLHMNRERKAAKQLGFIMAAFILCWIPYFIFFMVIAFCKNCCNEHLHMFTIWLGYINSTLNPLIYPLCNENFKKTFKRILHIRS
MEASURED ATTRIBUTE: Ki (nM)
Give bare numbers, in nM.

Ki for `C[C@@H]1OC(=O)N(C(=O)NCCCN2CCC(c3ccc(F)cc3)CC2)[C@H]1c1ccc(F)c(F)c1` ? 54

---

- METHOD NOTES: Oral bioavailability in dog
- Assay type: ADME, organism-based, Canis lupus familiaris
- MEASUREMENT SETUP: in vivo
MEASURED ATTRIBUTE: bioavailability

Please look up its bioavailability: `C[C@@H]1OC(=O)N(C(=O)NCCCN2CCC(c3ccc(F)cc3)CC2)[C@H]1c1ccc(F)c(F)c1` 74%

---

- TARGET OR SYSTEM: Alpha-1D adrenergic receptor (Homo sapiens)
- Sequence (P25100 whole entry): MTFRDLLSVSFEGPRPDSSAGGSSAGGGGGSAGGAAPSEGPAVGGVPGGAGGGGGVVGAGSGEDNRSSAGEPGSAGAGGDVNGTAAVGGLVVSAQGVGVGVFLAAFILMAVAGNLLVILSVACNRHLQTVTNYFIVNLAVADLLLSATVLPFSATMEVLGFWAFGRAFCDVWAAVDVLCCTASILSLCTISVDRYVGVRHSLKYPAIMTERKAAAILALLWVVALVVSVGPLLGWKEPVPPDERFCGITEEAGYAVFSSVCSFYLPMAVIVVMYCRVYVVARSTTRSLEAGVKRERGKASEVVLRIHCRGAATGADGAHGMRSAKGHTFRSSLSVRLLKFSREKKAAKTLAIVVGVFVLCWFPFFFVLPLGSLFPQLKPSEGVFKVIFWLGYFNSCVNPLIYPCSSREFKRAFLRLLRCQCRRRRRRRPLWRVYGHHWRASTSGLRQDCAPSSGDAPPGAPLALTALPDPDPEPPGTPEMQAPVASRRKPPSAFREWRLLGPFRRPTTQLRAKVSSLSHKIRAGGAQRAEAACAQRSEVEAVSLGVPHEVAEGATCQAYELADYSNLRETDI
- METHOD NOTES: Binding affinity towards Alpha1D human adrenergic receptors, using [125I]HEAT as radioligand.
MEASURED ATTRIBUTE: pKi
One number for each entry, as −log10 of the molar value.

# pKi lookup, item `C[C@@H]1OC(=O)N(C(=O)NCCCN2CCC(c3ccc(F)cc3)CC2)[C@H]1c1ccc(F)c(F)c1` 6.91

Origin of measurements: ChEMBL document CHEMBL1133777
